Test system: DU-145 prostate
Experiment: NCI tumour cell line growth inhibition, 48 h
OUTCOME_MEASURE: TGI

These solved cases illustrate the format of a correct answer.
| COMPOUND | TGI |
| --- | --- |
| CC1=C(Cc2ccccc2)C(Cc2ccccc2)=C(C)S1=O | > 100 µM |
| N#Cc1cnc(=O)n(C2CC(O)C(CO)O2)c1 (stereo not given) | > 100 µM |
| C=CC1(c2ccc(-c3ccccc3)cc2)OCCO1 | > 100 µM |
| Cc1ccc(N2CN3OC(=O)N(c4ccccc4)[C@@]3(c3ccccc3)C2)cc1 | > 100 µM |
| COc1ccc2cc1Oc1ccc(cc1)CC1c3cc(OC)c(cc3CCN1C)Oc1c(OC)c(OC)cc3c1C(C2)N(C)CC3 (stereo not given) | 27.9 µM |

Provide only the value of recorded TGI for COc1ccc(OC)c2c1C=C[C@H](C1(C)SCCS1)C2C(C)=O (stereo not given in full)
97.9 µM

Provide only the value of recorded TGI for COc1ccc(/C=C/c2cc(OC)c(OC)c(OC)c2)cc1O[Si](C)(C)C(C)(C)C
> 100 µM

Provide only the value of recorded TGI for CCOC(=O)C(C)c1nc2cc3cccnc3c(Cl)c2[nH]c1=O (stereo not given)
50 µM

Provide only the value of recorded TGI for CCN(CC)CCNC(=O)c1cc2cc(NC(=O)c3cc4cc(N)ccc4[nH]3)ccc2[nH]1
47.1 µM

Origin of the recorded values: PubChem BioAssay (NCI)
